- assayed.target: T1, human CD4 on cells (SKW3 cells; human PBMCs) (human, UniProt P01730 26-458)
- T1 construct: whole, on cells; SKW3 CD4 knockout cells served as the negative cell line; also called hCD4
- procedure.summary: FACS binning on SKW3 cells pre-incubated with supernatant; competitor OKT4-A488, its signal read; background 2163, max binding 8200
What SKW3 FACS Binning OKT4 A488 was measured for each of the following?
Reply briefly: the number, and no unit.

Form field SKW3 FACS Binning OKT4 A488, entry 75110_04F22A (antibody, V domains shown, Tested as non-clonal AlivaMab Mouse Kappa hybridoma supernatant: human variable domains and human kappa, mouse Fc) VH: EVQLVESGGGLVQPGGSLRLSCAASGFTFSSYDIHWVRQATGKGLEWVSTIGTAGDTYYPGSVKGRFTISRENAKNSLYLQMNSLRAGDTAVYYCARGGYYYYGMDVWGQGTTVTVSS VL: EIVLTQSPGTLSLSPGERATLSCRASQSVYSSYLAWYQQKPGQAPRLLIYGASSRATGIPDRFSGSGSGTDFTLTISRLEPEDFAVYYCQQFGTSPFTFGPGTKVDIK : 9940

75110_14P05A (antibody, V domains shown, Tested as non-clonal AlivaMab Mouse Kappa hybridoma supernatant: human variable domains and human kappa, mouse Fc) VH: EVQLVESGGGLVQPGGSLRLSCAASGFTFSSYDVHWVRQATGKGLEWVSTIGTAGDTYYPGSVKGRFTISRENAKNSLYLQMNSLRAGDTAVYYCARGGFYYYGMDVWGQGTTVTVSS VL: EIVLTQSPGTLSLSPGERATLSCRASQSVSSSYLAWYQQKPGQTPRLLIYGASSRATGIPDRFSGSGSGTDFTLTISRLEPEDFAVFYCQQSGSSPFTFGPGTKVDVK yielded SKW3 FACS Binning OKT4 A488 of 9340

Looking up 75110_12K21A (antibody, V domains shown, Tested as non-clonal AlivaMab Mouse Kappa hybridoma supernatant: human variable domains and human kappa, mouse Fc) VH: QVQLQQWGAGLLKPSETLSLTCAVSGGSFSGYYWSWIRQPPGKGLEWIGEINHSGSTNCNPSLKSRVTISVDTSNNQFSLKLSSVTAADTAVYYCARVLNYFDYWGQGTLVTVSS VL: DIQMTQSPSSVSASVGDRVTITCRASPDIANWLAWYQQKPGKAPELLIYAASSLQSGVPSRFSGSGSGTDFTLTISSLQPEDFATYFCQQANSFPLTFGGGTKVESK , I see its SKW3 FACS Binning OKT4 A488 listed as 10000
